Sourced from patent EP0447703A1

- assay.procedure: LD20 determined in the P388/0 test
- Format: in vivo
- run.conditions: mouse, in vivo, ip
- Protocol: CD2-F₁ mice, of the same sex weighing within 20+3g, are used for this test. Control and test animals are injected intraperitoneally with a suspension of 10⁶ viable P388/O tumour cells on day 0. In each test several dose levels which bracket the LD₂₀ for the compound are evaluated; each dose level group contains 6 animals. […]
Structures can show the parent of a compound that is named as a salt.
# key: entry, value: LD20
The reply should be a number in mg/kg, with the unit left off.

INSERT INTO assay_data (compound, quantitative_readout) VALUES
  ('CCn1c2ccccc2c2c3c(ccc21)c(CNC(C)(CO)CO)cn3C [Example 12C]', 100);

What LD20 value was documented for this compound, Cn1c2ccccc2c2sc3cc(CNC(C)(CO)CO)ccc3c21 [Example 16, hydrochloride] ?
250

Further, for Cn1c2cccc(CNC(C)(CO)CO)c2c2sc3ccccc3c21 [Example 15D, Hydrochloride] ?
225

Further, for "Cn1c2ccccc2c2cc(CNC(C)(CO)CO)c3sccc3c21" ?
375

Further, for "Cn1c2ccccc2c2ccc3sc(CNC(C)(CO)CO)cc3c21" ?
375

====

# key: entry, value: % T/C*
- Tested on: P388/O tumour cells
- assay.procedure: Lymphocytic Leukemia P388/0 Test
- Assay type: in vivo, CD2-F₁ mice
- run.conditions: ratio of median survival time treated/control x 100 at optimal dose; excluding 30 day survivors; criterion for activity T/C x 100 ≧120%
The reply should be a number in %, with the unit left off.

Please tell me: % T/C* of CC(CO)(CO)NCc1ccc2c(c1)oc1ccc3occc3c12.Cl [Example 4M] , system P388/O tumour cells?
117

Further, for Cl.Cn1cc(CNC(C)(CO)CO)c2ccc3sc4ccccc4c3c21 [Example 11E] ?
135

Further, for Cn1c2ccccc2c2cc(CNC(C)(CO)CO)c3sccc3c21 [Example 2C] ?
195

Further, for Cn1c2ccccc2c2ccc3sc(CNC(C)(CO)CO)cc3c21 [Example 3B] ?
195

Further, for Cl.Cn1c2ccccc2c2oc3c(CNC(C)(CO)CO)cccc3c21 [Example 1E] ?
210

Further, for CC(CO)(CO)NCc1c2ccoc2cc2c1oc1ccccc12.Cl [Example 9E] ?
192

====

- assay.procedure: LD20 determined in the P388/0 test
- Format: in vivo
- run.conditions: mice, intraperitoneally on days 1, 5 and 9
# key: entry, value: LD20
The reply should be a number in mg/kg, with the unit left off.

These solved cases illustrate the format of a correct answer.
INSERT INTO assay_data (compound, quantitative_readout) VALUES
  ('CC(CO)(CO)NCc1ccc2oc3cc4ccoc4cc3c2c1.Cl', 300),
  ('Cl.Cn1c2ccccc2c2oc3c(CNC(C)(CO)CO)cccc3c21', 150),
  ('Cl.Cn1cc(CNC(C)(CO)CO)c2c3sc4ccccc4c3ccc21 [Example 14B]', 150),
  ('Cl.Cn1cc(CNC(C)(CO)CO)c2ccc3oc4ccccc4c3c21 [Example 13E]', 115),
  ('Cl.Cn1cc(CNC(C)(CO)CO)c2ccc3sc4ccccc4c3c21 [Example 11E]', 250);

What LD20 value was documented for this compound, "CC(CO)(CO)NCc1ccc2oc3ccc4occc4c3c2c1.Cl" ?
175

Further, for "CC(CO)(CO)NCc1cc2oc3ccccc3c2c2ccoc12.Cl" ?
60

Further, for "CC(CO)(CO)NCc1cc2c(ccc3oc4ccccc4c32)o1.Cl" ?
175

Further, for "CC(CO)(CO)NCc1c2ccoc2cc2c1oc1ccccc12.Cl" ?
75

====

- Test system: P388/O tumour cells
- assay.procedure: Lymphocytic Leukemia P388/0 Test
- Type: in vivo, CD2-F₁ mice
- run.conditions: ratio of median survival time treated/control x 100 at optimal dose; excluding 30 day survivors; criterion for activity T/C x 100 ≧120%
Where a name gives a salt, the structure may show the parent alone.
parameter.measured: % T/C* (%)
The reply should be a number in %, with the unit left off.

These solved cases illustrate the format of a correct answer.
INSERT INTO measurements (compound, units_symbol, quantitative_readout) VALUES
  ('CC(CO)(CO)NCc1cc2c(ccc3oc4ccccc4c32)o1.Cl', '%', 138),
  ('CC(CO)(CO)NCc1ccc2oc3cc4ccoc4cc3c2c1.Cl', '%', 200),
  ('CC(CO)(CO)NCc1ccc2oc3ccc4occc4c3c2c1.Cl', '%', 117),
  ('Cn1c2cccc(CNC(C)(CO)CO)c2c2sc3ccccc3c21 [Example 15D, Hydrochloride]', '%', 140),
  ('Cl.Cn1cc(CNC(C)(CO)CO)c2c3sc4ccccc4c3ccc21 [Example 14B]', '%', 215);

What % T/C* value was documented for this compound, "CC(CO)(CO)NCc1cc2oc3ccccc3c2c2ccoc12.Cl" ?
213

Further, for CC(CO)(CO)NCc1cc2cc3oc4ccccc4c3cc2o1.Cl [Example 10B] ?
100

====

# key: entry, value: % T/C*
- System: P388/O tumour cells
- assay.procedure: Lymphocytic Leukemia P388/0 Test
- Assay type: in vivo, CD2-F₁ mice
- run.conditions: ratio of median survival time treated/control x 100 at optimal dose; excluding 30 day survivors; criterion for activity T/C x 100 ≧120%
Where a name gives a salt, the structure may show the parent alone.
The reply should be a number in %, with the unit left off.

INSERT INTO results (molecule, test_target, quantitative_readout) VALUES
  ('CCn1c2ccccc2c2c3c(ccc21)c(CNC(C)(CO)CO)cn3C [Example 12C]', 'P388/O tumour cells', 113),
  ('Cn1c2ccccc2c2sc3cc(CNC(C)(CO)CO)ccc3c21 [Example 16, hydrochloride]', 'P388/O tumour cells', 170);

Okay, now this molecule:
What % T/C* value was documented for this molecule, Cl.Cn1cc(CNC(C)(CO)CO)c2ccc3oc4ccccc4c3c21 [Example 13E] ?
120
